Target: USP2 (Homo sapiens)
Sequence (O75604 259-605 limits assumed): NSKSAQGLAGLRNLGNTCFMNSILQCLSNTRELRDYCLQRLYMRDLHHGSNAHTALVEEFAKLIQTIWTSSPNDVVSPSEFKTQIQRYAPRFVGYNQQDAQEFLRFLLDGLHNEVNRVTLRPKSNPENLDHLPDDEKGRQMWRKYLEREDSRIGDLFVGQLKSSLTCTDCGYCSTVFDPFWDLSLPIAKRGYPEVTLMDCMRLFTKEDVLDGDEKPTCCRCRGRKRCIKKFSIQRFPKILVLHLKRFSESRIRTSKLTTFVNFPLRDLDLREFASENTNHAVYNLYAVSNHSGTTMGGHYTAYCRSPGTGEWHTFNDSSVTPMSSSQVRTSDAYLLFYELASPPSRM
readout: IC50 (µM)
One number for each entry, in µM.

// IC50 value for Cc1ccc(S(=O)(=O)Nc2ccc(C(F)(F)F)cc2C(=O)Nc2nc(-c3ccc(Br)cc3)cs2)cc1 [XH161-102 (MS102)] : 5
